Give MIC50 for every item shown.
- Test system: L. pneumophila serogroup 6
- METHOD_NOTES: microbe, parasite or virus in culture
- Assay type: cell-based
- CONDITION_SUMMARY: Legionella pneumophila

// solved cases for MIC50 follow
| MOLECULE | ENDPOINT_LABEL | VAL |
| --- | --- | --- |
| Cc1c(F)c(N2CCNC(C)C2)cc2c1c(=O)c(C(=O)O)cn2C1CC1 (stereo not drawn) | MIC50 | 8 ng/mL |
| CO[C@H]1/C=C/O[C@@]2(C)Oc3c(C)c(O)c4c(O)c(c(/C=N/N5CCN(C)CC5)c(O)c4c3C2=O)NC(=O)/C(C)=C\C=C\[C@H](C)[C@H](O)[C@@H](C)[C@@H](O)[C@@H](C)[C@H](OC(C)=O)[C@@H]1C | MIC50 | ≤ 4 ng/mL |

# evaluate next
Looking up `CC[C@H]1OC(=O)[C@H](C)[C@@H](O[C@H]2C[C@@](C)(OC)[C@@H](O)[C@H](C)O2)[C@H](C)[C@@H](O[C@@H]2O[C@H](C)C[C@H](N(C)C)[C@H]2O)[C@](C)(O)C[C@@H](C)CN(C)[C@H](C)[C@@H](O)[C@]1(C)O` , I see its MIC50 listed as 60 ng/mL

---

Here's what we have: log10(MIC50) numbers for L. micadadei.
# values: log10(MIC50), units µg/mL

Some solved cases for reference:
| MOLECULE | VAL |
| --- | --- |
| Cc1c(F)c(N2CCNC(C)C2)cc2c1c(=O)c(C(=O)O)cn2C1CC1 (stereo not shown) | -2.10 |
| CC[C@H]1OC(=O)[C@H](C)[C@@H](O[C@H]2C[C@@](C)(OC)[C@@H](O)[C@H](C)O2)[C@H](C)[C@@H](O[C@@H]2O[C@H](C)C[C@H](N(C)C)[C@H]2O)[C@](C)(O)C[C@@H](C)C(=O)[C@H](C)[C@@H](O)[C@]1(C)O | -0.30 |
| CC1COc2c(N3CCN(C)CC3)c(F)cc3c(=O)c(C(=O)O)cn1c23 (stereo not shown) | -1.52 |
| COc1c(N2C[C@@H]3CCCN[C@@H]3C2)c(F)cc2c(=O)c(C(=O)O)cn(C3CC3)c12 | -1.80 |
| CO/N=C1\CN(c2nc3c(cc2F)c(=O)c(C(=O)O)cn3C2CC2)CC1CN (racemic) | -1.80 |
| CC[C@H]1OC(=O)[C@H](C)[C@@H](O[C@H]2C[C@@](C)(OC)[C@@H](O)[C@H](C)O2)[C@H](C)[C@@H](O[C@@H]2O[C@H](C)C[C@H](N(C)C)[C@H]2O)[C@](C)(OC)C[C@@H](C)C(=O)[C@H](C)[C@@H](O)[C@]1(C)O | -1.22 |

Quick batch: log10(MIC50) for everything below.
1. CC[C@H]1OC(=O)[C@H](C)[C@@H](O[C@H]2C[C@@](C)(OC)[C@@H](O)[C@H](C)O2)[C@H](C)[C@@H](O[C@@H]2O[C@H](C)C[C@H](N(C)C)[C@H]2O)[C@](C)(O)C[C@@H](C)CN(C)[C@H](C)[C@@H](O)[C@]1(C)O
2. CO[C@H]1/C=C/O[C@@]2(C)Oc3c(C)c(O)c4c(O)c(c(/C=N/N5CCN(C)CC5)c(O)c4c3C2=O)NC(=O)/C(C)=C\C=C\[C@H](C)[C@H](O)[C@@H](C)[C@@H](O)[C@@H](C)[C@H](OC(C)=O)[C@@H]1C
3. C[C@H]1COc2c(N3CCN(C)CC3)c(F)cc3c(=O)c(C(=O)O)cn1c23

[-0.60, -2.10, -1.80]

---

- System: L. pneumophila serogroup 6
- METHOD_NOTES: microbe, parasite or virus in culture
- Assay type: cell-based
- CONDITION_SUMMARY: Legionella pneumophila
Could you please report measured MIC50 for the items listed next?

Below are worked cases with known answers.
| COMPOUND | MIC50 |
| --- | --- |
| N[C@@H]1[C@H]2CN(c3nc4c(cc3F)c(=O)c(C(=O)O)cn4-c3ccc(F)cc3F)C[C@@H]12 | ≤ 0.004 µg/mL |
| CC[C@H]1OC(=O)[C@H](C)[C@@H](O[C@H]2C[C@@](C)(OC)[C@@H](O)[C@H](C)O2)[C@H](C)[C@@H](O[C@@H]2O[C@H](C)C[C@H](N(C)C)[C@H]2O)[C@](C)(O)C[C@@H](C)C(=O)[C@H](C)[C@@H](O)[C@]1(C)O | 0.12 µg/mL |
| CC[C@H]1OC(=O)[C@H](C)[C@@H](O[C@H]2C[C@@](C)(OC)[C@@H](O)[C@H](C)O2)[C@H](C)[C@@H](O[C@@H]2O[C@H](C)C[C@H](N(C)C)[C@H]2O)[C@](C)(OC)C[C@@H](C)C(=O)[C@H](C)[C@@H](O)[C@]1(C)O | 0.016 µg/mL |

Give me MIC50 for each of these compounds, listed below.
1. COc1c(N2C[C@@H]3CCCN[C@@H]3C2)c(F)cc2c(=O)c(C(=O)O)cn(C3CC3)c12
2. C[C@H]1COc2c(N3CCN(C)CC3)c(F)cc3c(=O)c(C(=O)O)cn1c23
3. CO/N=C1\CN(c2nc3c(cc2F)c(=O)c(C(=O)O)cn3C2CC2)CC1CN (racemic)

1: 0.008 µg/mL; 2: 0.008 µg/mL; 3: 0.016 µg/mL

Input CC1COc2c(N3CCN(C)CC3)c(F)cc3c(=O)c(C(=O)O)cn1c23 (stereo not shown) . Output MIC50: 0.03 µg/mL

---

- Tested on: L. pneumophila serogroup 7
- METHOD_NOTES: microbe, parasite or virus in culture
- Assay type: cell-based
- CONDITION_SUMMARY: Legionella pneumophila
ENDPOINT_LABEL: MIC90 (µg/mL)
One number for each entry, in µg/mL.

| MOLECULE | UNITS_OF_MEASURE | MIC90 |
| --- | --- | --- |
| CC1COc2c(N3CCN(C)CC3)c(F)cc3c(=O)c(C(=O)O)cn1c23 (stereo not shown) [Ofloxacin] | µg/mL | 0.03 |
| CC[C@H]1OC(=O)[C@H](C)[C@@H](O[C@H]2C[C@@](C)(OC)[C@@H](O)[C@H](C)O2)[C@H](C)[C@@H](O[C@@H]2O[C@H](C)C[C@H](N(C)C)[C@H]2O)[C@](C)(O)C[C@@H](C)CN(C)[C@H](C)[C@@H](O)[C@]1(C)O [Azithromycin] | µg/mL | 0.06 |
| C[C@H]1COc2c(N3CCN(C)CC3)c(F)cc3c(=O)c(C(=O)O)cn1c23 [Levofloxacin] | µg/mL | 0.016 |
| Cc1c(F)c(N2CCNC(C)C2)cc2c1c(=O)c(C(=O)O)cn2C1CC1 (stereo not shown) [Grepafloxacin] | µg/mL | 0.008 |

Now look at this entry.
What the record says about CO/N=C1\CN(c2nc3c(cc2F)c(=O)c(C(=O)O)cn3C2CC2)CC1CN (racemic) [Gemifloxacin] : MIC90 is 0.016

These data points were gathered from patent US6340689B1.
